experiment: qHTS assay to identify small molecule agonists of the progesterone receptor (PR) signaling pathway - cell viability counter screen (AID 1346799); details: PR-UAS-bla HEK293T viability, CellTiter-Glo luminescence, 16 h; series mostly up to 92.4 µM; further: nearly all actives have a fitted effect of over 45% in size
Records with an inconclusive call do not appear. Active and inactive are the calls of the source. The call rests on the fitted dose curve.
Measured Attribute: activity change, negative = cytotoxicity

{"columns": ["Compound", "Recorded Measurement"],
 "data": [
  ["CC(=O)C1C(=O)C=C(C)OC1=O (stereo not drawn)", "inactive"],
  ["C/C(=C1\\CCOC(=O)S1)N(C=O)Cc1cnc(C)nc1N", "inactive"],
  ["CC(C)(CO)C(O)C(=O)NCCCO (stereo not drawn)", "inactive"],
  ["C=C(C)[C@@H]1CC=C(C)CC1", "inactive"],
  ["c1ccc2c(CC3=NCCN3)cccc2c1", "inactive"],
  ["CC(=O)C(C)O (stereo not drawn)", "inactive"],
  ["CCCCOCC(C)O (stereo not drawn)", "inactive"],
  ["CC(=O)OC1CCCCC1C(C)(C)C (stereo not drawn)", "inactive"],
  ["CC1=C(O)C(=O)C(C)O1 (stereo not drawn)", "inactive"],
  ["N#Cc1ccccc1O", "inactive"],
  ["CC(C)C1OCCN1CCOC(=O)NCCCCCCNC(=O)OCCN1CCOC1C(C)C (stereo not drawn)", "inactive"],
  ["CC(N)CCCC(C)(C)O (stereo not drawn)", "inactive"],
  ["CCC(=O)CC", "inactive"],
  ["COP(=O)(O)OP(=O)(O)OC", "inactive"],
  ["Cc1ccnc(N)c1", "inactive"],
  ["CC(=O)CCc1ccc(OC(C)=O)cc1", "inactive"],
  ["Cc1c(N)cccc1Cl", "inactive"],
  ["CC(C)Nc1ccccc1", "inactive"],
  ["CCCCCCCCCCCCCCCCCC#N", "inactive"],
  ["OC[C@@H](O)C(O)[C@@H](O)CO (stereo partly drawn)", "inactive"],
  ["COCCc1ccccn1", "inactive"],
  ["CC(=O)Nc1ccc(OC(=O)c2ccccc2OC(C)=O)cc1", "inactive"],
  ["O=C1NC(c2ccccc2)(c2ccccc2)C(=O)N1COP(=O)(O)O", "inactive"],
  ["COC(=O)/C=C\\C(=O)O", "inactive"],
  ["CC1CC(=O)CC(C)(C)C1 (stereo not drawn)", "inactive"],
  ["C=C(C)c1cccc(C(C)(C)N=C=O)c1", "inactive"],
  ["CN(C)CCCCl", "inactive"],
  ["COc1cc(/C=C/C(N)=O)cc(OC)c1OC", "inactive"],
  ["CCCCOC(=O)[C@H](C)O", "inactive"],
  ["O=Cc1cc2ccccc2o1", "inactive"],
  ["Fc1ccccc1", "inactive"],
  ["C=Cc1ccc(C(C)(C)C)cc1", "inactive"],
  ["NCc1ccc(S(N)(=O)=O)cc1", "inactive"]
]}
